- experiment notes: qHTS assay to identify small molecule agonists of the endoplasmic reticulum stress response signaling pathway - cell viability counter screen (AID 1159517);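 note: HeLa cells carrying an ER stress response element beta-lactamase reporter; nearly all actives have a fitted effect of over 50% in size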
- assay setup: ESRE-bla HeLa viability, CellTiter-Glo luminescence, 5 h; series mostly up to 61 µM
Records with an inconclusive call do not appear. Activity calls are given as the source filed them. Calls come from the whole dose curve.
Write down the outcome that applies. Available outcomes: y (active), n (inactive)

CC(=O)[C@H]1[C@H](C#N)C[C@H]2[C@@H]3CC=C4C[C@@H](O)CC[C@]4(C)[C@H]3CC[C@@]21C | n
CCCCOc1ccc(OCCCN2CCOCC2)cc1 | n
CC(=O)Nc1cc(S(=O)(=O)O)cc2cc(S(=O)(=O)O)c(N=Nc3ccccc3)c(O)c12 | n
Cc1ccc(OC(=O)c2ccccc2O)cc1 | n
CCOC(=O)c1ccc(O)c(O)c1 | n
CNC(=O)c1cnn(-c2nc(N)c3ncn([C@@H]4O[C@H](CO)[C@@H](O)[C@H]4O)c3n2)c1 | n
COc1cc(C(=O)NCCCCCC(=O)O)cc(OC)c1OC | n
Cc1[nH]cnc1CN1CCc2c(c3ccccc3n2C)C1=O | n

# next molecule below
Could you please tell me the result logged for C/C=C\C/C=C/CCCCCCCCOC(C)=O in this assay?
n

====

- experiment notes: Human pregnane X receptor (PXR) small molecule agonists, qHTS cell viability counter screen (AID 1346977); note: nearly all actives have a fitted effect of over 50% in size
- assay setup: PXR-Luc HepG2 viability, CellTiter-Fluor, 24 h; series mostly up to 92.4 µM
Results filed as inconclusive are left out. Calls of active or inactive are those of the source. Calls come from the whole dose curve; as a rule, active = well fitted cell-killing curve with a large enough effect in the repeat runs; inconclusive = weak or mixed curves, or effect the other way; inactive = flat fitted curve, though single readings scatter.
In this exercise, the only acceptable responses are 1.0 for active, 0.0 for inactive

Please review the entries below; each comes with its answer.
Cc1ccccc1S | 0.0
CC1(CN2CCC(n3c(=O)[nH]c4ccccc43)CC2)OCc2ccccc2-n2cccc21 (stereo not drawn) | 1.0
COc1cc(C(=O)NC2CCN(C)CC2)ccc1Nc1ncc2c(n1)N(C1CCCC1)CC(F)(F)C(=O)N2C | 1.0
CCC1(CO)COCOC1 | 0.0
CC(CO)CO | 0.0
Nc1ccc(N=Nc2ccccc2)c(N)c1 | 1.0
CCCCCCCCCCCCCCN(CCO)CCO | 1.0
C=Cc1ccc(S(=O)(=O)O)cc1 | 0.0
CS(=O)(=O)c1ccc(-c2cn3ccccc3n2)cc1 | 0.0
CC(C)=CC(=O)C=C(C)C | 0.0

Would you mind telling me which call this test gave C=CCc1ccccc1OCC(O)CNC(C)C (stereo not drawn) ?
0.0

Answer briefly: the call reported for CN1C(C(=O)Nc2ccccn2)=C(O)c2sccc2S1(=O)=O in this assay.
0.0

GET /call?item= Cc1ccc(Cl)c(Nc2ccccc2C(=O)O)c1Cl returns the recorded outcome of this test.
0.0

====

- study target: Nuclear receptor subfamily 1 group I member 2 (Homo sapiens)
- experiment notes: Human pregnane X receptor (PXR) small molecule agonists, qHTS assay (AID 1346982); note: nearly all actives have a fitted effect of over 35% in size
- assay setup: PXR-Luc HepG2, CYP3A4 luciferase reporter, 24 h; series mostly up to 92.4 µM
- From the text: National Center for Advancing Translational Sciences [NCATS] NIH Chemical Genomics Center [NCGC] U.S. Environmental Protection Agency [EPA] National Institutes of Environmental Health Sciences [NIEHS] National Toxicology Program [NTP] The human pregnane X receptor (hPXR) regulates the expression of several drug metabolizing enzymes and induction of these proteins is a major mechanism for developing drug resistance in cancer. […]
Inconclusive results are not listed. Calls of active or inactive are those of the source. The call rests on the fitted dose curve; in most records, active means well fitted activation curve with a large enough effect in the repeat runs; inconclusive means weak or mixed curves; inactive means no such curve, though single readings can be large or run the other way.
Permitted responses: active, inactive

COc1ncnc(NS(=O)(=O)c2ccc(N)cc2)c1OC | inactive
CCC(C)(C)OC | inactive
CCCCCCCC/C=C\CCCCCCCCCCCC(=O)O | inactive
CC(=O)OCC[N+](C)(C)C | inactive
O=C1Cc2cc(Cl)ccc2N1 | inactive

Recorded test outcome, item CCOC(=O)c1ccc(O)c(O)c1
inactive

So what was the verdict on CC(C)=CCC/C(C)=C/CC/C(C)=C/C(=O)OCC(=O)[C@@]1(O)CC[C@H]2[C@@H]3CCC4=CC(=O)C=C[C@]4(C)[C@H]3[C@@H](O)C[C@@]21C in this test?
active

What outcome does the record of this test show for O=C(Cn1ccnc1[N+](=O)[O-])NCCO ?
inactive

GET /call?item= CN1CCCC(n2nc(Cc3ccc(Cl)cc3)c3ccccc3c2=O)CC1 (configuration not stated) returns the recorded outcome of this test.
active

Call for entry COc1cc(C(=O)NCCCCCC(=O)O)cc(OC)c1OC :
inactive

Per the records of this test, what outcome belongs to Cc1cc2c(OCC(CNC(C)(C)C)OC(=O)c3ccccc3)cccc2[nH]1 (configuration not stated) ?
inactive

What outcome does the record of this test show for CCN(CC)CCNC(=O)COc1ccc(OC)cc1 ?
inactive
